Provide the recorded protein stability index for the entries that follow.
Test: protein stability index of a GFP-peptide fusion (yeast GPS) (PSI 1-4); higher = more stable; sorted into four equal gates, so the index is relative within each strain
Conditions: ubr1∆
Answers are plain numbers.

Report protein stability index for each item below.
1. TAPSSQRRVLLSAPLSK [RPL26A]
2. TNQLVLLQKMLNLLNYQ [YML103C/NUP188]
3. AEEDSLLSGEDLTLDDI [YJL039C/NUP192]
4. CSIEPIAAKLINSGLYS [YML103C/NUP188]
5. RSISKELIVSEEIPINS [SIR3]

[reply]
2.18
1.43
3.43
1.19
1.99

Report protein stability index for each item below.
1. FHFRAPSRIFYKALRGM [RPL16A]
2. LYGKRFFPYYVHTIIAG [PRE7]
3. NSSESDEEESNDEKQKA [RPN13]

[reply]
1. 2.43
2. 1.14
3. 3.41

Report protein stability index for each item below.
1. TKVNNQLIKVAVHNGGR [RPL9A]
2. DLSANQRETMKERKLRE [SMC1]
3. EYGKHDFKNEESLSEEH [MED8]
4. VGVNKDSYLILDTLPSE [RPT5]
5. VVSCSQHGFEVQVGPMK [RPB7]
6. KTNIIEKAMDYAISIEN [RPN12]

[reply]
2.4
3.42
3.34
3.14
3.23
3.45

Report protein stability index for each item below.
1. SVEAYLVSLFEDTNLAA [HHT1]
2. TEFEFYLLEELESYLIV [SSN8]
3. GSARTRWEMEAFGEFSL [FAS2]
4. SYYELETIIFDSELNRA [RRI1]
5. IGAAELNENARELEQIK [SNF12]
6. LLENSVDKNFDKLELYV [MTW1]
7. GNISSSTVKKKDIVNIS [REC8]
8. PSAVAGFINQKNLKPQE [YIL149C/MLP2]

[reply]
1: 3.06; 2: 2.72; 3: 2.24; 4: 2.93; 5: 3.33; 6: 2.97; 7: 3.02; 8: 3.02

###

Provide the recorded protein stability index for the entries that follow.
Assay: protein stability index of a GFP-peptide fusion (yeast GPS) (PSI 1-4); higher = more stable; sorted into four equal gates, so the index is relative within each strain
Details: ubr1∆
Answers are plain numbers.

| sequence.code | protein stability index |
| --- | --- |
| NAAPANVTGGKAANFIQ [SWI1] | 2.46 |
| KSLKNNFYRPLLRSVLV [YML103C/NUP188] | 2.29 |
| SIATKRFDAQTGSDREV [RPT3] | 3.48 |
| GNSFHLMRELLKMMKLI [PRP8] | 2.43 |
| VVEACGNIVAELAQDPQ [YCS4] | 2.12 |

Report protein stability index for each item below.
1. QTLYTGDKVVVTIWYRA [SSN3]
2. TTDDKSMDTKKKHKQKK [BRN1]
3. EAKSFQDEAELVEEKTP [RPC82]
4. QLSLDASKTNLRLTDVT [GAL11]
5. IWPAEDALRRGMLAMAS [MED4]
6. KKISSFKSLIDEDLLDT [YGL172W/NUP49]

[reply]
1. 1.47
2. 3.27
3. 3.5
4. 3.16
5. 3.27
6. 3.14

###

Provide the recorded protein stability index for the entries that follow.
Experiment: protein stability index of a GFP-peptide fusion (yeast GPS) (PSI 1-4); higher = more stable; sorted into four equal gates, so the index is relative within each strain
Settings: ubr1∆
One number for each entry.

| sequence.code | reported.endpoint | measured |
| --- | --- | --- |
| KHEEIDTKNLYVIKALQ [RPS10A] | protein stability index | 1.46 |

Report protein stability index for each item below.
1. VYLSLLDKDSSQSSAAA [RPN6]
2. IKVTVQLKIQNRQAAAS [RPL12A]
3. FMLILALFVFYSPNTLG [COB]
4. DMPCDVLAKRMANLSQI [SCL1]
5. KALDRHEFFIANHDDQD [SRP68]
6. LELVNTPLTENILIASL [YCG1]

[reply]
1. 3.03
2. 2.16
3. 2.52
4. 1.61
5. 3.17
6. 2.27

Report protein stability index for each item below.
1. AFLALVDAGIALNSMCA [RRP46]
2. DEDDDLDEDDVNADDDD [RPB4]
3. KAFKICEAAVEISKKDF [SIR3]
4. PSSEVYSPIEKESPWKI [RRP6]
5. IRKIVRKDENQFSYVDS [AAR2]
6. EDMETQASDPSKKKKNI [RPC53]
7. ANDEEAYIKLLDQTKDT [SNF2]

[reply]
1: 2.59; 2: 3; 3: 2.85; 4: 3.29; 5: 3.12; 6: 3.33; 7: 3

Report protein stability index for each item below.
1. DESYARAYRIIRAHQTE [QCR7]
2. FKYRKARLEPGTAIGAI [RPO31]
3. TSLATSAGQPNLLLSAS [ASC1]
4. CDLSSKFNKSKAKFTSL [YCS4]

[reply]
[3.41, 2.33, 1.99, 2.64]

Report protein stability index for each item below.
1. FEAAVKMSDGFNGADIR [RPT4]
2. QMMARMAQTATQQQPGA [SRP54]

[reply]
1. 3.39
2. 2.27

###

Assay: protein stability index of a GFP-peptide fusion (yeast GPS) (PSI 1-4); higher = more stable; sorted into four equal gates, so the index is relative within each strain
Conditions: doa10∆
Classification field: MET = protein stability index at or over 3; NOT MET = protein stability index under 3.

Use the examples below as a reference point.
| sequence.code | label.class |
| --- | --- |
| FFGPTYYQRLRHMVDDK [RPB2] | NOT MET |
| LITVMEKSPDPTIRSNA [YCS4] | NOT MET |
| VRSLLEVVQTGAKNIEI [PRE6] | MET |

[ask] Hi, just wondering whether FAAKQRQELQMQRQQQG [SNF2] shows protein stability index of 3 or higher.
[reply] NOT MET

[ask] Hi, just wondering whether LDSMIELFKDYKPGSIT [MED1] shows protein stability index of 3 or higher.
[reply] NOT MET

[ask] Hi, just wondering whether QLSKAAKAAAALAGGKK [RPS25A] shows protein stability index of 3 or higher.
[reply] NOT MET

[ask] Hi, just wondering whether FNKSAELSRIENEVENI [YCS4] shows protein stability index of 3 or higher.
[reply] MET

[ask] Hi, just wondering whether LEMLKPCVEDGFVIQDR [RPB2] shows protein stability index of 3 or higher.
[reply] MET

[ask] Hi, just wondering whether NQILQTEIENYLLENNQ [YDL116W/NUP84] shows protein stability index of 3 or higher.
[reply] NOT MET

[ask] Hi, just wondering whether AFSYEQAQLRIDDKTQN [DIS3] shows protein stability index of 3 or higher.
[reply] MET

[ask] Hi, just wondering whether VVDRESDIPKTTVQVAE [PRE4] shows protein stability index of 3 or higher.
[reply] NOT MET

[ask] Hi, just wondering whether FVSRPDRTMLAPMDFAI [FAS1] shows protein stability index of 3 or higher.
[reply] NOT MET

[ask] Hi, just wondering whether QFLRLIFVSILSDRANK [ARP9] shows protein stability index of 3 or higher.
[reply] NOT MET

[ask] Hi, just wondering whether GSTTIEKKNDENSTSNS [YLR335W/NUP2] shows protein stability index of 3 or higher.
[reply] MET

[ask] Hi, just wondering whether YELEFDTPTSGKHNLTI [BRR2] shows protein stability index of 3 or higher.
[reply] MET

###

Assay: protein stability index of a GFP-peptide fusion (yeast GPS) (PSI 1-4); higher = more stable; sorted into four equal gates, so the index is relative within each strain
Details: ubr1∆
reported.endpoint: protein stability index

Report protein stability index for each item below.
1. ANPAGASQPEPTTNEPA [YJL041W/NSP1]
2. RVLETTLVEFETIKMKE [BRN1]
3. DAWVSAAHYNRERIKRG [PRP8]
4. VLMETKNTQSPQTPLVE [SNU114]
5. HPFVFEEVEDQINPTRE [SNF2]

[reply]
1. 3.16
2. 1.34
3. 1.96
4. 2.96
5. 3.13

Report protein stability index for each item below.
1. SSQVREHVKELLKYSNE [RPL1A]
2. LIIDGQIIFGVVEKKTV [RPO21]

[reply]
2.13
1.54

###

Assay: protein stability index of a GFP-peptide fusion (yeast GPS) (PSI 1-4); higher = more stable; sorted into four equal gates, so the index is relative within each strain
Details: pdr5∆
reported.endpoint: protein stability index
Answers are plain numbers.

Example entries begin here.
| sequence.code | protein stability index |
| --- | --- |
| ITDKTIKAFMDSTIGNS [IRR1] | 2.62 |
| TLKKNNVAVDIINFGEI [RPN10] | 3.01 |
| AESMCQELELPGEFVTA [SNF5] | 2.53 |
| SVKLKQKRLEAGALNLA [DIS3] | 3.11 |
| LQYTALTGSPNNPLVQK [ARP7] | 2.7 |

Report protein stability index for each item below.
1. MLVDLNVPWPQNSYADK [RPP1]
2. IKEENDMENMADEQKRS [ARP7]
3. LEQMELSILKGDYSQAT [RPN5]

[reply]
1: 1.08; 2: 3.48; 3: 2.91
